System: KB
Assay: Cytotoxicity against human KB cells after 3 days by MTT assay
Format: functional, cell-based
Details: 72 h
I'd be grateful if you could share measured IC50 for these entries.
Numbers only, in µg/mL.

For each listed entry, give its IC50.
1. CCC1=CN2CC[C@@]34C(=Nc5ccccc53)[C@@]3(CC5=C6N(C3)c3ccccc3[C@@]63CCN6C[C@@H](CC)[C@@H]5C[C@H]63)[C@H]1C[C@H]24 [LEUCORIDINE B]
2. C=C1[C@H]2C[C@@H]3N(CC[C@@]34c3cccc(C[C@@H]5C6=Nc7ccccc7[C@@]67CCN6C[C@@H](CC)[C@@H]5C[C@H]67)c3N[C@@H]14)C[C@H]2CC [LEUCORIDINE D]
3. CC[C@@H]1CN2CC[C@@]34C5=C(C[C@]6(CN5c5ccccc53)C3=Nc5ccccc5[C@@]35CCN3C[C@@H](CC)[C@@H]6C[C@H]35)[C@H]1C[C@H]24 [LEUCORIDINE A]
4. CC[C@@H]1CN2CC[C@@]34C5=C(C[C@]6(CN5c5ccccc53)C(=O)[C@@]3(c5ccccc5N)CCN5C[C@@H](CC)[C@@H]6C[C@H]53)[C@H]1C[C@H]24 [LEUCORIDINE C]

-- reply
1: 11.6; 2: 12.5; 3: 0.57; 4: 10.9
